Here the recorded IC50 is given for each entry.
Target: Human recombinant PTP-1B (Homo sapiens)
Construct: Human recombinant PTP-1B, containing amino acids 1-321, fused to GST enzyme; GST (glutathione S-transferase)
Sequence (P18031 1-321): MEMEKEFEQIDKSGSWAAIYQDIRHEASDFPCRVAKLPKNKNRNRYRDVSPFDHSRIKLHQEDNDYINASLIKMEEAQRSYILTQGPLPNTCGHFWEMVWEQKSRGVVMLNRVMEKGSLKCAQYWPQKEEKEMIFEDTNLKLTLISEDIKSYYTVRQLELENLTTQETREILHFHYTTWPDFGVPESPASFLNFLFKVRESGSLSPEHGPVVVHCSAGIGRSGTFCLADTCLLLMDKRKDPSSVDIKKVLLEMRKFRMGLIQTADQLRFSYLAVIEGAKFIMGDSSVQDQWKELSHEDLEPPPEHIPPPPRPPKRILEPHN
Test: Assay for PTP-1B Activity (pNPP substrate)
Conditions: human recombinant PTP-1B (1-321) GST fusion, 2 mM pNPP, pH 7.4, 30° C., 20 min; read-out: Activity Code (IC50 range)
measured-quantity: IC50

compound="O=C(O)c1ccc(-c2cn(Cc3ccc(F)cc3)c(=O)n2Cc2ccc(C(F)(F)P(=O)(O)O)c(Br)c2)cc1 [Compound 13]" measured_quantity=IC50 result="250 to 2500 nM"
compound="COC(=O)COc1ccc(-c2cn(C3CC3)c(=O)n2Cc2ccc(C(F)(F)P(=O)(O)O)c(Br)c2)cc1 [Compound 51]" measured_quantity=IC50 result="100 to 249 nM"
compound="O=c1n(Cc2ccc(C(F)(F)P(=O)(O)O)c(Br)c2)ccn1-c1ccccc1 [Compound 43]" measured_quantity=IC50 result="2500 to 25000 nM"
compound="CCOC(=O)C(C)(C)Oc1ccc(-c2cn(C3CC3)c(=O)n2Cc2ccc(C(F)(F)P(=O)(O)O)c(Br)c2)cc1 [Compound 73]" measured_quantity=IC50 result="100 to 249 nM"
compound="CC(C)(C)C(=O)OCOC(=O)COc1ccc(-c2cn(C3CC3)c(=O)n2Cc2ccc(C(F)(F)P(=O)(O)OCOC(=O)C(C)(C)C)c(Br)c2)cc1 [Compound 77]" measured_quantity=IC50 result="250 to 2500 nM"
compound="O=c1n(CC2CC2)cc(-c2ccccc2)n1Cc1ccc(C(F)(F)P(=O)(O)O)c(Br)c1 [Compound 33]" measured_quantity=IC50 result="250 to 2500 nM"
compound="CC(C)(C)C(=O)OCOP(=O)(O)C(F)(F)c1ccc(Cn2c(-c3ccc(S(C)(=O)=O)cc3)c[nH]c2=O)cc1Br [Compound 64]" measured_quantity=IC50 result="2500 to 25000 nM"
compound="O=C(O)/C=C/c1ccc(-c2cn(C3CC3)c(=O)n2Cc2ccc(C(F)(F)P(=O)(O)O)c(Br)c2)cc1 [Compound 46]" measured_quantity=IC50 result="< 99 nM"
compound="CS(=O)(=O)c1ccc(-c2cn(Cc3ccccc3)c(=O)n2Cc2ccc(C(F)(F)P(=O)(O)O)c(Br)c2)cc1 [Compound 17]" measured_quantity=IC50 result="< 99 nM"
compound="O=C(O)c1ccc(Cn2cc(-c3ccccc3)n(Cc3ccc(C(F)(F)P(=O)(O)O)c(Br)c3)c2=O)cc1 [Compound 55]" measured_quantity=IC50 result="250 to 2500 nM"
compound="COC(=O)c1ccc(-c2cn(Cc3cc(OC)cc(OC)c3)c(=O)n2Cc2ccc(C(F)(F)P(=O)(O)O)c(Br)c2)cc1 [Compound 23]" measured_quantity=IC50 result="< 99 nM"
compound="CS(=O)(=O)c1ccc(-c2cn(Cc3cccc(F)c3)c(=O)n2Cc2ccc(C(F)(F)P(=O)(O)O)c(Br)c2)cc1 [Compound 22]" measured_quantity=IC50 result="100 to 249 nM"
compound="COC(=O)COc1ccc(Cn2ccn(Cc3ccc(C(F)(F)P(=O)(O)O)c(Br)c3)c2=O)cc1Cl [Compound 82]" measured_quantity=IC50 result="250 to 2500 nM"
compound="COC(=O)c1ccc(-c2cn(C3CC3)c(=O)n2Cc2ccc(C(F)(F)P(=O)(O)O)c(Br)c2)cc1 [Compound 24]" measured_quantity=IC50 result="100 to 249 nM"
